Origin of values: the supplement of paper PMC11865577

Listing: pull-down binding Z-score of selected sequences
# Tested on: TO-N3-2 (biotin conjugate)
# experiment_notes: pull-down binding Z-score (relative to library population); higher = stronger binding
# measurement_parameters: RNA library: Library-2
# output: bare number, no unit

• GACCCCCAUGCACCCCUGUGGGCCCCUGGCAUC [hsa-mir-1257] = 1.21
• GUUCUCAGUACAGAGAAAUCUCCCUUUUGACAGAACAACCAUUAUGGCAGCAUUCAAUGGGAAUACAGAGGGGAGAACAUCUGACAUGAGGAC [IAV_invivo_NP_5_Motif_22+IAV_invivo_NP_5_Motif_22] = 1.23
• UCCACCCCCAGAGAAUCCCUAAACCGGGGGUGGA [hsa-mir-1289-1] = -0.449
• UAAGUUGUGAUCAUACCA [hsa-mir-1273g] = 0.165

As a next step, examine the sequence that follows.
**Q:** Could you share what pull-down binding Z-score was measured for GGAUAAGAAUCAGUCAC [hsa-mir-217] , tested on TO-N3-2 (biotin conjugate)?
**A:** -0.147

* * *

# Test system: TO-3-N3-2 (biotin conjugate)
# experiment_notes: pull-down binding Z-score (relative to library population); higher = stronger binding
# measurement_parameters: RNA library: Library-2
pull-down binding Z-score below -0.2 gives criterion not met; pull-down binding Z-score at or above it gives criterion met.

Before answering, review these 3 worked examples.
- CAUGCUGAUUUUGACACAUGGUUUAGCCAGCGUG [DMSMaPseq_invitro_SARS-CoV-2_Motif_160]: criterion not met
- UGAGUGGCAUAAUCAGAGUACAAUUUGAGUCAUGCCCAUACAUCA [hsa-mir-23c]: criterion met
- GCAGUGGCUAACUAACAUCUUUGGCACUGU: criterion met

**Q:** Does pull-down binding Z-score meet or surpass -0.2 for UAGUGGAAAGAGCACUG [hsa-mir-378b] ?
**A:** criterion met

**Q:** Now try UCUAUACAGAACUGGA [SHAPE_invivo_SARS-CoV-2_Motif_242] .
**A:** criterion met

**Q:** Can you check GUACAUACAGCUAAUAAAUGGGAUCUCAUUAUUAGUGAUAUGUAC next?
**A:** criterion met

**Q:** Field entry: AAGGUAAGAGGGAUACUUACCUG [U1snRNP5ss-26]
**A:** criterion not met

**Q:** Entry to check: CAAUACAUAAGAAAGCUACAUGAUGAGUUAACAGGACACAUGUUAGACAUGUAUUCUGUUAUGCUUACUAAUGAUAACACUUCAAGGUAUUG
**A:** criterion met

**Q:** Field entry: AACAGGAGUCACCUUUUGUU
**A:** criterion met

**Q:** Next record, please: ACAGUCUGUACCGUCUGCGGUAUGUGGAAAGGUUAUGGCUGU
**A:** criterion not met

**Q:** Consider next the sequence UACCAUUUAAUGAUGGUG in the same way.
**A:** criterion not met

* * *

# Tested on: G-clamp-N3 (biotin conjugate)
# experiment_notes: pull-down binding Z-score (relative to library population); higher = stronger binding
# measurement_parameters: RNA library: Library-1 (pre-miRNA loops + repeats)
Use criterion met when the recorded pull-down binding Z-score is no lower than -0.08; use criterion not met when it is lower.

Completed entries (count: 3):
- GGGGCUGGCUGGGUCUGGUAGUGGGCAUCAGCUGGCCCU [hsa-mir-1207]: criterion met
- AGAGAUGAGCAUAAAGUUUUU [hsa-mir-6086]: criterion not met
- UUUUUUUCCAAUGAAAAUAACGAAACCUGUUAUUUCCCAUUGAGGGGGAAAAA [hsa-mir-4484]: criterion met

**Q:** Check this sequence for pull-down binding Z-score at or above -0.08: UGAGCAUUCUAGCAGCAGUUUGAUGAUCA [hsa-mir-6516]
**A:** criterion not met

**Q:** Entry to check: GCGGCCGCGCUGGCCGCU [hsa-mir-3665]
**A:** criterion met

**Q:** Next up: GAGACACUC [hsa-mir-6126]
**A:** criterion not met

**Q:** Proceed to AUGUGAUGUCACUGAGGAAAUCACAC [hsa-mir-216b]
**A:** criterion met
